Cited source: patent EP4647082A1

Test: Phase I first-in-human study, pharmacokinetics after single ascending subcutaneous doses in healthy volunteers
Assay type: in vivo
Conditions: human, plasma; single SC dose 8 mg; nominal time 0.08 h; mean; read-out: Plasma Concentration AXN-001
Bridge positions count the residues as written; N and C are the ends. Square brackets hold non-standard residues; d marks the D form. Peptide text beside a SMILES is read from it. * marks the point of attachment. Phe(2-CONH2) = NC(=O)c1ccccc1C[C@H](N)C(=O)O; Orn(iPr) = CC(C)NCCC[C@H](N)C(=O)O; Oxazole2carbonyl = O=C(c1ncco1)*; 3Pal = N[C@@H](Cc1cccnc1)C(=O)O
MEASUREMENT_TYPE: level at 0.08 h

- COMPOUND: "CC(C)NCCC[C@@H]1NC(=O)[C@@H](NC(=O)[C@H](Cc2ccccc2C(N)=O)NC(=O)[C@H](NC(=O)c2ncco2)C(C)C)CSSC[C@@H](C(=O)N[C@@H](Cc2cccnc2)C(N)=O)NC(=O)[C@H](Cc2ccccc2)NC(=O)[C@@H]2CCCN2C(=O)CNC(=O)[C@H](C(C)C)NC(=O)[C@H](CC(=O)O)NC1=O [AXN-001] (Oxazole2carbonyl-[dV][Phe(2-CONH2)]C[Orn(iPr)]DVGPFC[3Pal]-NH2; disulfide 3-10)"
  MEASUREMENT_TYPE: "level at 0.08 h"
  MEAS_VALUE: "32.1 ng/mL"

* * *

Assay: Phase I first-in-human study, pharmacokinetics after single ascending subcutaneous doses in healthy volunteers
Format: in vivo
Conditions: human, plasma; single SC dose 16 mg; nominal time 0.08 h; mean; read-out: Plasma Concentration AXN-001
Bridge positions count the residues as written; N and C are the ends. Square brackets hold non-standard residues; d marks the D form. Peptide text beside a SMILES is read from it. * marks the point of attachment. Phe(2-CONH2) = NC(=O)c1ccccc1C[C@H](N)C(=O)O; Orn(iPr) = CC(C)NCCC[C@H](N)C(=O)O; Oxazole2carbonyl = O=C(c1ncco1)*; 3Pal = N[C@@H](Cc1cccnc1)C(=O)O
MEASUREMENT_TYPE: level at 0.08 h (ng/mL)

- COMPOUND: "CC(C)NCCC[C@@H]1NC(=O)[C@@H](NC(=O)[C@H](Cc2ccccc2C(N)=O)NC(=O)[C@H](NC(=O)c2ncco2)C(C)C)CSSC[C@@H](C(=O)N[C@@H](Cc2cccnc2)C(N)=O)NC(=O)[C@H](Cc2ccccc2)NC(=O)[C@@H]2CCCN2C(=O)CNC(=O)[C@H](C(C)C)NC(=O)[C@H](CC(=O)O)NC1=O [AXN-001] (Oxazole2carbonyl-[dV][Phe(2-CONH2)]C[Orn(iPr)]DVGPFC[3Pal]-NH2; disulfide 3-10)"
  MEASUREMENT_TYPE: "level at 0.08 h"
  UNIT_NAME: "ng/mL"
  MEAS_VALUE: 27.4

* * *

Assay: Phase I first-in-human study, pharmacokinetics after single ascending subcutaneous doses in healthy volunteers
Type: in vivo
Details: human, plasma; single SC dose 2 mg; nominal time 0.08 h; mean; read-out: Plasma Concentration AXN-001
Bridge positions count the residues as written; N and C are the ends. Square brackets hold non-standard residues; d marks the D form. Peptide text beside a SMILES is read from it. * marks the point of attachment. Phe(2-CONH2) = NC(=O)c1ccccc1C[C@H](N)C(=O)O; Orn(iPr) = CC(C)NCCC[C@H](N)C(=O)O; Oxazole2carbonyl = O=C(c1ncco1)*; 3Pal = N[C@@H](Cc1cccnc1)C(=O)O

- COMPOUND: "CC(C)NCCC[C@@H]1NC(=O)[C@@H](NC(=O)[C@H](Cc2ccccc2C(N)=O)NC(=O)[C@H](NC(=O)c2ncco2)C(C)C)CSSC[C@@H](C(=O)N[C@@H](Cc2cccnc2)C(N)=O)NC(=O)[C@H](Cc2ccccc2)NC(=O)[C@@H]2CCCN2C(=O)CNC(=O)[C@H](C(C)C)NC(=O)[C@H](CC(=O)O)NC1=O [AXN-001] (Oxazole2carbonyl-[dV][Phe(2-CONH2)]C[Orn(iPr)]DVGPFC[3Pal]-NH2; disulfide 3-10)"
  level at 0.08 h (ng/mL): 11.3
